Origin of measurements: paper PMC9667936

Please go through the items and note down their ΔG.
# assayed.target: 14-3-3γ (Homo sapiens, UniProt P61981)
# Construct: made in house; host or cells: E. coli NiCo21 (DE3)
# procedure.details: Fluorescence anisotropy (FA) binary binding study: 14-3-3 titrated to fluorescein-labelled peptide
# condition.notes: Table S4; from FA Kd; replicate 1
# Description: 14-3-3γ protein expression (FP/ITC experiments) A pPROEX HTb expression vector encoding the human 14-3-3 protein gamma (14-3-3γ) with an N-terminal his6-tag was transformed by heat shock into NiCo21 (DE3) competent cells. Single colonies were cultured in 50 mL LB medium (100 µg/mL ampicillin). After overnight incubation at 37 °C, cultures were transferred to 2 L TB media (100 µg/mL ampicillin, 1 mM MgCl2) and incubated at 37 °C until an OD600 nm of 0.8-1.2 was reached. […]
Where a SMILES comes first, the peptide text is derived from it. [ ]: non-standard residue; d: D form. ξ: configuration not given here. Phe(4-NO2) = N[C@@H](Cc1ccc([N+](=O)[O-])cc1)C(=O)O; ξAla(4-thiazolyl) = NC(Cc1cscn1)C(=O)O; pS = N[C@@H](COP(=O)(O)O)C(=O)O; β3hS = N[C@@H](CO)CC(=O)O; Nva = CCC[C@H](N)C(=O)O; ξβ3hS = NC(CO)CC(=O)O; βAla = NCCC(=O)O
Numbers only, in kcal/mol.

molecule	ΔG, kcal/mol
CCC[C@H](NC(=O)[C@H](N)CCCCN)C(=O)N[C@@H](Cc1ccc([N+](=O)[O-])cc1)C(=O)NC(Cc1cscn1)C(=O)N[C@@H](COP(=O)(O)O)C(=O)N[C@@H](Cc1ccc([N+](=O)[O-])cc1)C(=O)N[C@@H](CO)CC(=O)NCCC(=O)N[C@@H](C)C(=O)N[C@@H](CCCCN)C(N)=O (stereo partly drawn) [5c] (H-[dK][Nva][Phe(4-NO2)][ξAla(4-thiazolyl)][pS][Phe(4-NO2)][β3hS][βAla]AK-NH2; N-terminus and C-terminus assumed)	-7.5
CCC[C@H](NC(=O)[C@H](N)CCCCN)C(=O)N[C@@H](Cc1ccc([N+](=O)[O-])cc1)C(=O)NC(Cc1cscn1)C(=O)N[C@@H](COP(=O)(O)O)C(=O)N[C@@H](Cc1ccc([N+](=O)[O-])cc1)C(=O)N[C@@H](CO)CC(=O)NCCC(=O)N[C@@H](Cc1ccc(O)cc1)C(=O)N[C@@H](CCCCN)C(N)=O (stereo partly drawn) [5a] (H-[dK][Nva][Phe(4-NO2)][ξAla(4-thiazolyl)][pS][Phe(4-NO2)][β3hS][βAla]YK-NH2; N-terminus and C-terminus assumed)	-7.9
CCC[C@H](NC(=O)[C@H](N)CCCCN)C(=O)N[C@@H](Cc1ccc([N+](=O)[O-])cc1)C(=O)NC(Cc1cscn1)C(=O)N[C@@H](COP(=O)(O)O)C(=O)N[C@@H](Cc1ccc([N+](=O)[O-])cc1)C(=O)N[C@@H](CO)CC(=O)NCCC(=O)N[C@@H](Cc1ccccc1)C(=O)N[C@@H](CCCCN)C(N)=O (stereo partly drawn) [5b] (H-[dK][Nva][Phe(4-NO2)][ξAla(4-thiazolyl)][pS][Phe(4-NO2)][β3hS][βAla]FK-NH2; N-terminus and C-terminus assumed)	-8.0
CCC[C@H](NC(=O)[C@H](N)CCCCN)C(=O)N[C@@H](Cc1ccc([N+](=O)[O-])cc1)C(=O)NC(Cc1cscn1)C(=O)N[C@@H](COP(=O)(O)O)C(=O)N[C@@H](Cc1ccc([N+](=O)[O-])cc1)C(=O)NC(CO)CC(=O)NCCC(=O)N[C@@H](Cc1ccc([N+](=O)[O-])cc1)C(=O)N[C@@H](CCCCN)C(N)=O (stereo partly drawn) [compound 1] (H-[dK][Nva][Phe(4-NO2)][ξAla(4-thiazolyl)][pS][Phe(4-NO2)][ξβ3hS][βAla][Phe(4-NO2)]K-NH2)	-9.9

Alright, here's another molecule for you.
Query string: Given the molecule CCC[C@H](NC(=O)[C@H](N)CCCCN)C(=O)N[C@@H](Cc1ccc([N+](=O)[O-])cc1)C(=O)NC(Cc1cscn1)C(=O)N[C@@H](COP(=O)(O)O)C(=O)N[C@@H](Cc1ccc(O)cc1)C(=O)N[C@@H](CO)CC(=O)NCCC(=O)N[C@@H](Cc1ccc([N+](=O)[O-])cc1)C(=O)N[C@@H](CCCCN)C(N)=O (stereo partly drawn) [4a] (H-[dK][Nva][Phe(4-NO2)][ξAla(4-thiazolyl)][pS]Y[β3hS][βAla][Phe(4-NO2)]K-NH2; N-terminus and C-terminus assumed) , what is its reported ΔG?
Result string: -10.0

====

# assayed.target: 14-3-3γ (Homo sapiens, UniProt P61981)
# Construct: made in house; host or cells: E. coli NiCo21 (DE3)
# procedure.details: Fluorescence anisotropy (FA) binary binding study: 14-3-3 titrated to fluorescein-labelled peptide
# condition.notes: Table S4, point-mutated peptides; FA, 10 nM FITC-labelled peptide; replicate 1
Where a SMILES comes first, the peptide text is derived from it. [ ]: non-standard residue; d: D form. ξ: configuration not given here. Phe(4-NO2) = N[C@@H](Cc1ccc([N+](=O)[O-])cc1)C(=O)O; ξAla(4-thiazolyl) = NC(Cc1cscn1)C(=O)O; pS = N[C@@H](COP(=O)(O)O)C(=O)O; β3hS = N[C@@H](CO)CC(=O)O; Nva = CCC[C@H](N)C(=O)O; βAla = NCCC(=O)O
Please go through the items and note down their Affinity Kd.
Give bare numbers, in nM.

Worked set:
molecule	result.unit	Affinity Kd
CCC[C@H](NC(=O)[C@H](N)CCCCN)C(=O)N[C@@H](Cc1ccc([N+](=O)[O-])cc1)C(=O)NC(Cc1cscn1)C(=O)N[C@@H](COP(=O)(O)O)C(=O)N[C@@H](Cc1ccc([N+](=O)[O-])cc1)C(=O)N[C@@H](CO)CC(=O)NCCC(=O)N[C@@H](C)C(=O)N[C@@H](CCCCN)C(N)=O (stereo partly drawn) [5c] (H-[dK][Nva][Phe(4-NO2)][ξAla(4-thiazolyl)][pS][Phe(4-NO2)][β3hS][βAla]AK-NH2; N-terminus and C-terminus assumed)	nM	3200
CCC[C@H](NC(=O)[C@H](N)CCCCN)C(=O)N[C@@H](Cc1ccc([N+](=O)[O-])cc1)C(=O)NC(Cc1cscn1)C(=O)N[C@@H](COP(=O)(O)O)C(=O)N[C@@H](Cc1ccc([N+](=O)[O-])cc1)C(=O)N[C@@H](CO)CC(=O)NCCC(=O)N[C@@H](Cc1ccc(O)cc1)C(=O)N[C@@H](CCCCN)C(N)=O (stereo partly drawn) [5a] (H-[dK][Nva][Phe(4-NO2)][ξAla(4-thiazolyl)][pS][Phe(4-NO2)][β3hS][βAla]YK-NH2; N-terminus and C-terminus assumed)	nM	1700
CCC[C@H](NC(=O)[C@H](N)CCCCN)C(=O)N[C@@H](Cc1ccc([N+](=O)[O-])cc1)C(=O)N[C@@H](C)C(=O)N[C@@H](COP(=O)(O)O)C(=O)N[C@@H](Cc1ccc([N+](=O)[O-])cc1)C(=O)N[C@@H](CO)CC(=O)NCCC(=O)N[C@@H](Cc1ccc([N+](=O)[O-])cc1)C(=O)N[C@@H](CCCCN)C(N)=O [3a] (H-[dK][Nva][Phe(4-NO2)]A[pS][Phe(4-NO2)][β3hS][βAla][Phe(4-NO2)]K-NH2; N-terminus and C-terminus assumed)	nM	100

Query string: Item: CCC[C@H](NC(=O)[C@H](N)CCCCN)C(=O)N[C@@H](Cc1ccc([N+](=O)[O-])cc1)C(=O)NC(Cc1cscn1)C(=O)N[C@@H](COP(=O)(O)O)C(=O)N[C@@H](Cc1ccccc1)C(=O)N[C@@H](CO)CC(=O)NCCC(=O)N[C@@H](Cc1ccc([N+](=O)[O-])cc1)C(=O)N[C@@H](CCCCN)C(N)=O (stereo partly drawn) [4b] (H-[dK][Nva][Phe(4-NO2)][ξAla(4-thiazolyl)][pS]F[β3hS][βAla][Phe(4-NO2)]K-NH2; N-terminus and C-terminus assumed) Test system: 14-3-3γ (Homo sapiens, UniProt P61981) Read-out: Affinity Kd Value: ?
Result string: 46

====

Please go through the items and note down their ΔG.
# assayed.target: 14-3-3γ (Homo sapiens, UniProt P61981)
# Construct: made in house; host or cells: E. coli NiCo21 (DE3)
# Sequence (P61981 1-247): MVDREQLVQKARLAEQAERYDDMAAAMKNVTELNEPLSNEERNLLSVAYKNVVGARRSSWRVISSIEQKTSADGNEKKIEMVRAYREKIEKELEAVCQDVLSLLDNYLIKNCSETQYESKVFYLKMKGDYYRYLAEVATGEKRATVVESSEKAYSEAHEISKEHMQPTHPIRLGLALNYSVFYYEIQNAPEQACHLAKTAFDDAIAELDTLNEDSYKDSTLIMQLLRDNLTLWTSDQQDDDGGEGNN
# procedure.details: Fluorescence anisotropy (FA) binary binding study: 14-3-3 titrated to fluorescein-labelled peptide
# condition.notes: Table S3; from FA KD; replicate 2
Where a SMILES comes first, the peptide text is derived from it. [ ]: non-standard residue; d: D form. The star is where a group is joined. ξ: configuration not given here. FITC = O=C1OC2(c3ccc(O)cc3Oc3cc(O)ccc32)c2ccc(NC(=S)*)cc21; Phe(4-NO2) = N[C@@H](Cc1ccc([N+](=O)[O-])cc1)C(=O)O; ξAla(4-thiazolyl) = NC(Cc1cscn1)C(=O)O; pS = N[C@@H](COP(=O)(O)O)C(=O)O; β3hS = N[C@@H](CO)CC(=O)O; Nva = CCC[C@H](N)C(=O)O; AEA = NCCOCC(=O)O; βAla = NCCC(=O)O

Worked set:
compound	assayed.target	ΔG
CCC[C@H](NC(=O)[C@@H](CCCCN)NC(=O)COCCNC(=S)Nc1ccc2c(c1)C(=O)OC21c2ccc(O)cc2Oc2cc(O)ccc21)C(=O)N[C@@H](Cc1ccc([N+](=O)[O-])cc1)C(=O)NC(Cc1cscn1)C(=O)N[C@@H](COP(=O)(O)O)C(=O)N[C@@H](Cc1ccc([N+](=O)[O-])cc1)C(=O)N[C@@H](CO)CC(=O)NCCC(N)=O (stereo partly drawn) [2f] ({FITC-AEA}-[dK][Nva][Phe(4-NO2)][ξAla(4-thiazolyl)][pS][Phe(4-NO2)][β3hS][βAla]-NH2)	14-3-3γ (Homo sapiens, UniProt P61981)	-7,95 kcal/mol
CCC[C@H](NC(=O)[C@@H](CCCCN)NC(=O)COCCNC(=S)Nc1ccc2c(c1)C(=O)OC21c2ccc(O)cc2Oc2cc(O)ccc21)C(=O)N[C@@H](Cc1ccc([N+](=O)[O-])cc1)C(=O)NC(Cc1cscn1)C(=O)N[C@@H](COP(=O)(O)O)C(=O)N[C@@H](Cc1ccc([N+](=O)[O-])cc1)C(N)=O (stereo partly shown) [2h] ({FITC-AEA}-[dK][Nva][Phe(4-NO2)][ξAla(4-thiazolyl)][pS][Phe(4-NO2)]-NH2)	14-3-3γ (Homo sapiens, UniProt P61981)	-7,00 kcal/mol
CCC[C@H](NC(=O)[C@@H](CCCCN)NC(=O)COCCNC(=S)Nc1ccc2c(c1)C(=O)OC21c2ccc(O)cc2Oc2cc(O)ccc21)C(=O)N[C@@H](Cc1ccc([N+](=O)[O-])cc1)C(=O)NC(Cc1cscn1)C(=O)N[C@@H](COP(=O)(O)O)C(=O)N[C@@H](Cc1ccc([N+](=O)[O-])cc1)C(=O)N[C@@H](CO)CC(N)=O (stereo partly drawn) [2g] ({FITC-AEA}-[dK][Nva][Phe(4-NO2)][ξAla(4-thiazolyl)][pS][Phe(4-NO2)][β3hS]-NH2)	14-3-3γ (Homo sapiens, UniProt P61981)	-7,59 kcal/mol

Alright, here's another compound for you.
Query string: Item: CCC[C@H](NC(=O)[C@@H](CCCCN)NC(=O)COCCNC(=S)Nc1ccc2c(c1)C(=O)OC21c2ccc(O)cc2Oc2cc(O)ccc21)C(=O)N[C@@H](Cc1ccc([N+](=O)[O-])cc1)C(=O)NC(Cc1cscn1)C(=O)N[C@@H](COP(=O)(O)O)C(=O)N[C@@H](Cc1ccc([N+](=O)[O-])cc1)C(=O)N[C@@H](CO)CC(=O)NCCC(=O)N[C@@H](Cc1ccc([N+](=O)[O-])cc1)C(N)=O (stereo partly drawn) [2e] ({FITC-AEA}-[dK][Nva][Phe(4-NO2)][ξAla(4-thiazolyl)][pS][Phe(4-NO2)][β3hS][βAla][Phe(4-NO2)]-NH2) Test system: 14-3-3γ (Homo sapiens, UniProt P61981) Read-out: ΔG Value: ?
Result string: -9,39 kcal/mol
